assay: Steady-state trough and peak plasma concentrations of PMB (UPLC-MS/MS) and AUCss,24h estimation; type: in vivo, critically ill patients; conditions: human, plasma, iv, validation set (n = 15), plasma, sample immediately after infusion, UPLC-MS/MS, median (IQR); read-out: Cpeak, ss
Bridge positions count the residues as written; N and C are the ends. Square brackets hold non-standard residues; d marks the D form. Peptide text beside a SMILES is read from it. * marks the point of attachment. X1 = CC[C@H](C)CCCCC(=O)*; Dab = NCC[C@H](N)C(=O)O
Readout Kind: Cmax (ng/mL)

>>> value_reported("CC[C@H](C)CCCCC(=O)N[C@@H](CCN)C(=O)N[C@H](C(=O)N[C@@H](CCN)C(=O)N[C@H]1CCNC(=O)[C@H]([C@@H](C)O)NC(=O)[C@H](CCN)NC(=O)[C@H](CCN)NC(=O)[C@H](CC(C)C)NC(=O)[C@@H](Cc2ccccc2)NC(=O)[C@H](CCN)NC1=O)[C@@H](C)O [PMB, polymyxin B] (X1-[Dab]T[Dab][Dab][Dab][dF]L[Dab][Dab]T; lactam 4-C)")
4340

---

assay: Steady-state trough and peak plasma concentrations of PMB (UPLC-MS/MS) and AUCss,24h estimation; format: in vivo, critically ill patients; conditions: human, plasma, iv, modeling set (n = 80), plasma, sample immediately after infusion, UPLC-MS/MS, median (IQR); read-out: Cpeak, ss
Bridge positions count the residues as written; N and C are the ends. Square brackets hold non-standard residues; d marks the D form. Peptide text beside a SMILES is read from it. * marks the point of attachment. X1 = CC[C@H](C)CCCCC(=O)*; Dab = NCC[C@H](N)C(=O)O
Readout Kind: Cmax (ng/mL)

>>> value_reported("CC[C@H](C)CCCCC(=O)N[C@@H](CCN)C(=O)N[C@H](C(=O)N[C@@H](CCN)C(=O)N[C@H]1CCNC(=O)[C@H]([C@@H](C)O)NC(=O)[C@H](CCN)NC(=O)[C@H](CCN)NC(=O)[C@H](CC(C)C)NC(=O)[C@@H](Cc2ccccc2)NC(=O)[C@H](CCN)NC1=O)[C@@H](C)O [PMB, polymyxin B] (X1-[Dab]T[Dab][Dab][Dab][dF]L[Dab][Dab]T; lactam 4-C)")
5730
